Listed next: entries and their corresponding viability at 10 µM.
# System: Hep3B
# Assay overview: Cell viability analysis (WST-1), Hep3B
# Type: cell-based
# Measurement parameters: Homo sapiens, Hep3B, 72 h, Table 4, repeated experiments, drug 10 μM, read-out: survival rate (viability) of cancer cells, Hep3B
Where a name gives a salt, the structure may show the parent alone.

{"Molecule": "COC(=O)C1=C(C)NC(C)=C(C(=O)OCC(C)C)C1c1ccccc1[N+](=O)[O-] (stereo not drawn) [Nisoldipine (Sular), Nisoldipine]", "viability at 10 µM": "130%"}
{"Molecule": "COCCOC(=O)C1=C(C)NC(C)=C(C(=O)OC/C=C/c2ccccc2)C1c1cccc([N+](=O)[O-])c1 (stereo not drawn)", "viability at 10 µM": "92.7%"}
{"Molecule": "COc1cc2nc(N3CCN(C(=O)c4ccco4)CC3)nc(N)c2cc1OC [Prazosin HCl]", "viability at 10 µM": "116%"}
{"Molecule": "C[C@@H]1O[C@@H](O[C@H]2C[C@@H](O)[C@]3(CO)[C@H]4[C@H](O)C[C@]5(C)[C@@H](C6=CC(=O)OC6)CC[C@]5(O)[C@@H]4CC[C@]3(O)C2)[C@H](O)[C@H](O)[C@H]1O", "viability at 10 µM": "33.4%"}
{"Molecule": "CCC[C@H](N[C@@H](C)C(=O)N1[C@H](C(=O)O)C[C@@H]2CCCC[C@@H]21)C(=O)OCC", "viability at 10 µM": "99.5%"}
{"Molecule": "CCC(C)(C)C(=O)O[C@H]1C[C@@H](C)C=C2C=C[C@H](C)[C@H](CC[C@@H]3C[C@@H](O)CC(=O)O3)[C@H]21 [Simvastatin (Zocor), Simvastatin]", "viability at 10 µM": "114%"}

====

# System: MCF7 (Mammary Gland, Adenocarcinoma)
# Assay overview: Cell viability analysis (WST-1), MCF7
# Type: cell-based
# Measurement parameters: Homo sapiens, MCF7, 72 h, Table 3, drug 10 μM, WST-1, OD450 nm, read-out: survival rate (viability) of cancer cells, MCF7
Structures can show the parent of a compound that is named as a salt.

{"Molecule": "NS(=O)(=O)c1cc2c(cc1Cl)NC(C(Cl)Cl)NS2(=O)=O (stereo not drawn) [Trichlormethiazide (Achletin), Trichlormethiazide]", "viability at 10 µM, %": 64.2}
{"Molecule": "CCOC(=O)[C@H](CCc1ccccc1)N[C@@H](C)C(=O)N1[C@H](C(=O)O)C[C@@H]2CCC[C@@H]21", "viability at 10 µM, %": 82.4}
{"Molecule": "O=C(O)c1cc(=O)c2ccccc2o1", "viability at 10 µM, %": 100}
{"Molecule": "CCCCNc1cc(C(=O)O)cc(S(N)(=O)=O)c1Oc1ccccc1 [Bumetanide]", "viability at 10 µM, %": 116}
{"Molecule": "Cc1cccc(Nc2ccccc2C(=O)O)c1C", "viability at 10 µM, %": 95.3}
{"Molecule": "COCCCOc1cc(C[C@@H](C[C@H](N)[C@@H](O)C[C@H](C(=O)NCC(C)(C)C(N)=O)C(C)C)C(C)C)ccc1OC [Aliskiren hemifumarate]", "viability at 10 µM, %": 99.1}
{"Molecule": "NCCCCCC(=O)O", "viability at 10 µM, %": 69.2}
{"Molecule": "CCC(NC(C)C)C(O)c1ccc(O)c(O)c1 (stereo not drawn) [Isoetharine Mesylate]", "viability at 10 µM, %": 103}
{"Molecule": "CC(C)NCC(O)COc1ccc(COCCOC(C)C)cc1 (stereo not drawn)", "viability at 10 µM, %": 112}
{"Molecule": "CC(C)OC(=O)C(C)(C)Oc1ccc(C(=O)c2ccc(Cl)cc2)cc1 [Fenofibrate (Tricor, Trilipix), Fenofibrate]", "viability at 10 µM, %": 78.1}
{"Molecule": "O=C(O)c1nn(Cc2ccc(Cl)cc2Cl)c2ccccc12", "viability at 10 µM, %": 86.9}
{"Molecule": "Cc1cnc(C(=O)O)c[n+]1[O-]", "viability at 10 µM, %": 75.8}
{"Molecule": "CC(=O)Oc1ccc(C(c2ccc(OC(C)=O)cc2)c2ccccn2)cc1", "viability at 10 µM, %": 65}
{"Molecule": "CCN(CC)CCOC(=O)C(c1ccccc1)c1ccccc1 [Adiphenine HCl]", "viability at 10 µM, %": 103}
{"Molecule": "NC(=O)c1ncn([C@@H]2O[C@H](CO)[C@@H](O)[C@H]2O)c1N", "viability at 10 µM, %": 84.7}
